Molecular target: KCC3 (Homo sapiens, UniProt Q9UHW9)
Sequence (Q9UHW9 whole entry, species assumed): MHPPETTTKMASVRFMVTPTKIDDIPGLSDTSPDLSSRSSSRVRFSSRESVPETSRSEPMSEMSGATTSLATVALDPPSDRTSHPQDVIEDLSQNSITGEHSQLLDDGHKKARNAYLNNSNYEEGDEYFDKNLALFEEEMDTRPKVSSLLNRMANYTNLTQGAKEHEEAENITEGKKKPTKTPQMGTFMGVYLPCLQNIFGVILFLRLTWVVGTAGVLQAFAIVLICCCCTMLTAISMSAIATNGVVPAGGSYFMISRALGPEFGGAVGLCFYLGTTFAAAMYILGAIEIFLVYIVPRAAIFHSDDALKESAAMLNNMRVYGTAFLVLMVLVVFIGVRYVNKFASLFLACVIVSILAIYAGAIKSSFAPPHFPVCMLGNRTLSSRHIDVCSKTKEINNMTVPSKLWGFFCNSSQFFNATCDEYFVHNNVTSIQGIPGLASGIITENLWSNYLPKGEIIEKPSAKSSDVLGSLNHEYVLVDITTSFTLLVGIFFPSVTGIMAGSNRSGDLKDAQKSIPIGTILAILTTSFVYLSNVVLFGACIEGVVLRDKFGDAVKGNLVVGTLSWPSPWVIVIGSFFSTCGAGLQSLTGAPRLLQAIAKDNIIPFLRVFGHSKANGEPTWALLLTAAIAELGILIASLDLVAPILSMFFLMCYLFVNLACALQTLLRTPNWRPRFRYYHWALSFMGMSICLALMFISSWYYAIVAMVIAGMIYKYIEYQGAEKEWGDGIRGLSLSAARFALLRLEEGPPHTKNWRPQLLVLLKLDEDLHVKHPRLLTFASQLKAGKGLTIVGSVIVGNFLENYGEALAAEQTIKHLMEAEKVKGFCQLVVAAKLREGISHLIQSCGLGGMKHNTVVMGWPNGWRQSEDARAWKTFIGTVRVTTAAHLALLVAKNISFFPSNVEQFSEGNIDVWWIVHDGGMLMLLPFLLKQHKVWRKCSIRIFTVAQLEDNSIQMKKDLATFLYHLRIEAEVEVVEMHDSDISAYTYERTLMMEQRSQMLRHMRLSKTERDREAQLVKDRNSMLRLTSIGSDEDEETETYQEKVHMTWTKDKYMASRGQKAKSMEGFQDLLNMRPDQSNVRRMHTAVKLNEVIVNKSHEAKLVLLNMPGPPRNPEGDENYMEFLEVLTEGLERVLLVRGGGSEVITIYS
Test: Tl+ assay, HEK-293 cells expressing KCC3
Conditions: read-out: concentration at which effects on KCC3 were seen (EC50 chart FIG. 1G)
Description: FLIPR TI Flux assay. HEK-293 cells were washed with HBSS, and then incubated with loading buffer containing TI sensitive fluorescent dye (https://www.moleculardevices.com), 20 μM bumetanide 20 μM ouabain and 2.5 mM probenecid for 1 h at room temperature (RT) under control conditions or with drugs in the dark using a FlexStation 3 microplate reader (Molecular Devices) and imaged 525 nM for 30 min. […]
parameter.measured: EC50

> print(dat)
                    structure.smiles.string    result
1  C[C@@H]1CN(c2nc3c(c(Nc4ccc(C5CCCCC5)cc4)n2)COC3)CCO1  > 100 µM

---

Molecular target: UniProt:P55011
Sequence (P55011 whole entry, species assumed): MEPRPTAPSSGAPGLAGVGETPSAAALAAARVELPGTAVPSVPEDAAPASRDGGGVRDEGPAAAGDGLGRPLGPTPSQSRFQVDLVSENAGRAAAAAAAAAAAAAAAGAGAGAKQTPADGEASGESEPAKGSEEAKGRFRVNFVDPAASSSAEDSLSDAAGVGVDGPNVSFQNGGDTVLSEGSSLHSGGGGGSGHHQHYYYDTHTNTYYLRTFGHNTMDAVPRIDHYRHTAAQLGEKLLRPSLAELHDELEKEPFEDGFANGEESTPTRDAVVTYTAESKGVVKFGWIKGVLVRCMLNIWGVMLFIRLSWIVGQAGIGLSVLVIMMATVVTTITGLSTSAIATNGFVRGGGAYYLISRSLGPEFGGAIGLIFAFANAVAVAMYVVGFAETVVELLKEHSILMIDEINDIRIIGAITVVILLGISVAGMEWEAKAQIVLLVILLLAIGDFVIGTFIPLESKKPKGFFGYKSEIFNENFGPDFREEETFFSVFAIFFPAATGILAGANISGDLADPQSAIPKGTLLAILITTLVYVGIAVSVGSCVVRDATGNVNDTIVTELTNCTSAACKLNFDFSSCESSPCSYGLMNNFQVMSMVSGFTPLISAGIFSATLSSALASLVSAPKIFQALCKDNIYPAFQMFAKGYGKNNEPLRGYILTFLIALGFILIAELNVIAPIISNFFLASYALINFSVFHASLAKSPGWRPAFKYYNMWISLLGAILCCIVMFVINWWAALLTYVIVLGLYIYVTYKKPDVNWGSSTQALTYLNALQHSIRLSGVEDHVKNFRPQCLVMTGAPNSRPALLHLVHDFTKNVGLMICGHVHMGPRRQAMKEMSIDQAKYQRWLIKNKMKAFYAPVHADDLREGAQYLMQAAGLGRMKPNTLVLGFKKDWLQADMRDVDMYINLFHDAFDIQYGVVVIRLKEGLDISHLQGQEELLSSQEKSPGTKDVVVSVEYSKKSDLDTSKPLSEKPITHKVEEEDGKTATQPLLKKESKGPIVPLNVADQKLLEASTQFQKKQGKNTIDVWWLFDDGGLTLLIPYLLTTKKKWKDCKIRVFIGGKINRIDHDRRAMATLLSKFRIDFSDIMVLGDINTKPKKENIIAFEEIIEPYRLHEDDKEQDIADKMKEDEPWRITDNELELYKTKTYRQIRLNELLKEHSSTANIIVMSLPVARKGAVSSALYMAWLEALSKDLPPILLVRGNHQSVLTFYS
Assay: Tl+ assay, HEK-293 cells expressing NKCC1
Conditions: read-out: concentration at which effects on NKCC1 were seen (EC50 chart FIG. 1G)
parameter.measured: EC50

> print(dat)
                    structure.smiles.string  parameter.measured    result
1  C[C@@H]1CN(c2nc3c(c(Nc4ccc(C5CCCCC5)cc4)n2)COC3)CCO1                EC50  > 100 µM

---

Assay: PK studies, brain and plasma levels by LC-MS/MS
Format: in vivo, mice
Conditions: mouse, brain, intraperitoneal; 50 mg/kg IP, 4 hr
parameter.measured: concentration at 4 hr

> print(dat)
                    structure.smiles.string  result
1  C[C@@H]1CN(c2nc3c(c(Nc4ccc(C5CCCCC5)cc4)n2)COC3)CCO1  4.1 µM

---

Assay: PK studies, brain and plasma levels by LC-MS/MS
Type: in vivo, mice
Details: mouse, brain, intraperitoneal; 50 mg/kg IP, 2 hr
parameter.measured: concentration at 2 hr (nM)

> print(dat)
                                   compound     parameter.measured  quantitative.result
1  C[C@@H]1CN(c2nc3c(c(Nc4ccc(C5CCCCC5)cc4)n2)COC3)CCO1 [Compound A]  concentration at 2 hr                 2670

---

Test: PK studies, brain and plasma levels by LC-MS/MS
Assay type: in vivo, mice
Settings: mouse, brain; 25 mg/kg IV bolus, within 30 minutes; read-out: concentration in brain
parameter.measured: concentration at 30 min (µM)

> print(dat)
                    structure.smiles.string  quantitative.result
1  C[C@@H]1CN(c2nc3c(c(Nc4ccc(C5CCCCC5)cc4)n2)COC3)CCO1                  7.6

---

Experiment: PK studies, brain and plasma levels by LC-MS/MS
Assay type: in vivo, mice
Settings: mouse, plasma; 25 mg/kg IV bolus, within 30 minutes; read-out: concentration in plasma
parameter.measured: concentration at 30 min

> print(dat)
                    structure.smiles.string       parameter.measured   result
1  C[C@@H]1CN(c2nc3c(c(Nc4ccc(C5CCCCC5)cc4)n2)COC3)CCO1  concentration at 30 min  41.5 µM
